target-desc: KRas^Q61H (Homo sapiens, UniProt P01116, Q61H)
Construct: Biotinylated KRas (corresponding to amino acids 1-169, produced at Accelegan Inc.); biotin (biotinylated); purchased Accelegan Inc
Sequence (P01116 1-169 isoform P01116-2 Q61H): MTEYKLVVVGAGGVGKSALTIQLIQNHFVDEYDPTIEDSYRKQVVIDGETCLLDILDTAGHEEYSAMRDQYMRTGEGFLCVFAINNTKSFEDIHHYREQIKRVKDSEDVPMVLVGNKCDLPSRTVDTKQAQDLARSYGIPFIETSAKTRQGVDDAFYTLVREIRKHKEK
assay-comment: KRas binding assay (TR-FRET tracer displacement), KRas Q61H
experimental-parameters: TR-FRET tracer displacement, KRas Q61H
Would you mind telling me the reported IC50 of each entry?
Report the figure in nM without appending any unit label.

Exercise: Report measured IC50 on KRas^Q61H (Homo sapiens, UniProt P01116, Q61H); entry: Cc1cc2[nH]ncc2c(-c2ncc3c(N4CCCC5(C4)NC(=O)NC5=O)nc(OCC45CCCN4CCC5)nc3c2F)c1C (stereo not drawn) [Example 728]
Key: 40

Exercise: Report measured IC50 on KRas^Q61H (Homo sapiens, UniProt P01116, Q61H); entry: Cc1cc2[nH]ncc2c(-c2ncc3c(N4CCC[C@]5(C4)NC(=O)NC5=O)nc(OC[C@@]45CCCN4C[C@H](F)C5)nc3c2F)c1C [Example 731]
Key: 13

Exercise: Report measured IC50 on KRas^Q61H (Homo sapiens, UniProt P01116, Q61H); entry: Cc1cc2[nH]nnc2c(-c2ncc3c(N4CCCC5(C4)NC(=O)NC5=O)nc(OCC45CCCN4CCC5)nc3c2F)c1C (stereo not drawn) [Example 823]
Key: 1390

Exercise: Report measured IC50 on KRas^Q61H (Homo sapiens, UniProt P01116, Q61H); entry: Oc1cc(-c2ncc3c(N4C[C@@H]5C[C@H](C4)[C@H](O)C5)nc(OC[C@@]45CCCN4C[C@H](F)C5)nc3c2F)c2ccc(Cl)cc2c1 [Example 763]
Key: 45

Data credit: patent US20260015350A1
